# measured-target: recombinant eIF4E (Homo sapiens (Human), UniProt P06730)
# Sequence (P06730 whole entry): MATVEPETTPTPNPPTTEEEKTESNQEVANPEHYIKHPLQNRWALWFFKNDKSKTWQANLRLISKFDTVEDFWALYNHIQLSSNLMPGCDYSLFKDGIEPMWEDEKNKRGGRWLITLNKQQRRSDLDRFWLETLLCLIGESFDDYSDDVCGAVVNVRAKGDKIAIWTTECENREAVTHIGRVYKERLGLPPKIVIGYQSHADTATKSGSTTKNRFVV
# experiment-description: Fluorescence polarization competition assay for eIF4E binding potency
# assay-context: inhibition of eIF4E/EDA-m7GDP-ATTO-550 binding by 50%; Table 4B calculated values; read-out: IC50
pIC50: −log10 of the molar value.
measured-metric: pIC50

Sample answers from the record:
compound	pIC50
Cc1nc2cnc(N(C)C3CCN(C4CC4)CC3)c(C#N)c2c(=O)n1CC#Cc1ccc(Cl)cc1-c1ccnc2c(C(=O)O)csc12 [compound 1171]	7.89
Cc1nc2cnc(N3CCN(CCOC(F)(F)F)CC3)c(C#N)c2c(=O)n1CC#Cc1ccc(Cl)cc1-c1ccnc2c(C(=O)O)csc12 [compound 1161]	7.71
Cc1nc2c(N(C)C3CCN(C)C(C(F)F)C3)ncc(C#N)c2c(=O)n1CCOc1ccc(Cl)cc1-c1ccnc2c(C(=O)O)csc12 (stereo not shown) [compound 864]	7.32
Cc1cc(-c2cc(Cl)ccc2OCCn2c(C)nc3cc(C(F)(F)F)c(-c4nc(C(F)F)ccc4F)c(C#N)c3c2=O)c2scc(C(=O)O)c2n1 [compound 995]	7.80

P. Cc1nc2cnc(C3CC3)c(C#N)c2c(=O)n1CCOc1ccc(Cl)cc1Sc1cccc(C(=O)O)n1 [compound 940]
Q. Cc1nc2cnc(N(C)C3CCCCC3)c(C#N)c2c(=O)n1CC#Cc1ccc(Cl)cc1-c1ccnc2c(C(=O)O)csc12 [compound 1120]
Lookup: Looking at P and Q , which one comes out lower in pIC50 terms? Answer by stating the label of the chosen item.
Found: P

* * *

# measured-target: recombinant eIF4E (Homo sapiens (Human), UniProt P06730)
# experiment-description: Fluorescence polarization competition assay for eIF4E binding potency
# assay-context: inhibition of eIF4E/EDA-m7GDP-ATTO-550 binding by 50%; Table 4B calculated values; read-out: IC50
measured-metric: IC50 (nM)

query-smiles	number
Cc1nc2cnc(N(C)C3CCN(CC(C)(F)F)CC3)c(C#N)c2c(=O)n1CC#Cc1ccc(Cl)cc1-c1ccnc2c(C(=O)NS(=O)(=O)c3ccccn3)csc12	14.4

A. Cc1cc(-c2cc(Cl)ccc2OCCn2c(C)nc3cc(C(F)(F)F)c(N4CCCC4)c(C#N)c3c2=O)c2scc(C(=O)O)c2n1
B. Cc1nc2cc(C(F)(F)F)c(N3CCN(CCC(F)(F)F)CC3)c(C#N)c2c(=O)n1CCCc1ccc(Cl)cc1-c1ccnc2c(C(=O)O)csc12
Lookup: Of the two listed items, which has the higher IC50? First: A Second: B Answer by stating the label of the chosen item.
Found: B

* * *

# measured-target: recombinant eIF4E (Homo sapiens (Human), UniProt P06730)
# experiment-description: Fluorescence polarization competition assay for eIF4E binding potency
# assay-context: inhibition of eIF4E/EDA-m7GDP-ATTO-550 binding; calculated IC50 values, Table 4B; read-out: IC50
measured-metric: IC50 (µM)

P. Cc1nc2cnc(N(C)C3CCN(C4(COC(F)F)CC4)CC3)c(C#N)c2c(=O)n1CC#Cc1ccc(Cl)cc1-c1ccnc2c(C(=O)O)csc12
Q. Cc1cc(-c2cc(Cl)ccc2OCCn2c(C)nc3c(C)nc(CN(C)C)c(C#N)c3c2=O)c2scc(C(=O)O)c2n1
R. Cc1cc(-c2cc(Cl)ccc2OCCn2c(C)nc3cnc(N4CCN(C)CC4)c(C#N)c3c2=O)c2sc(C)c(C(=O)O)c2n1
Lookup: Sort the listed compounds above so the one with the largest IC50 comes first and the smallest comes last. // format: requested-order list of labels
Found: Q, P, R
(Q: 0.0721 µM, P: 0.0136 µM, R: 0.0091 µM)

* * *

# measured-target: recombinant eIF4E (Homo sapiens (Human))
# experiment-description: Fluorescence polarization competition assay for eIF4E binding potency
# assay-context: inhibition of eIF4E/EDA-m7GDP-ATTO-550 binding by 50%; Table 4B calculated values; read-out: IC50
measured-metric: IC50 (nM)

Sample answers from the record:
molecule	IC50 [nM]
Cc1nc2cccc(C#N)c2c(=O)n1CCOc1ccc(Cl)cc1-c1ccnc2c(C(=O)O)csc12	20.4
Cc1cc(-c2cc(Cl)ccc2OCCn2c(C)nc3cc4c(c(C#N)c3c2=O)CN(C)CC4)c2scc(C(=O)O)c2n1	27.9
Cc1cc(-c2cc(Cl)ccc2OCCn2c(C)nc3cc(C(F)(F)F)c(-c4nccnc4C)nc3c2=O)c2scc(C(=O)O)c2n1	30.8
Cc1nc2ccc(S(=O)(=O)c3ccccn3)c(C#N)c2c(=O)n1CCOc1ccc(Cl)cc1-c1ccnc2c(C(=O)O)csc12	36.3

A. Cc1nc2cnc(N(C)C3CCN(C4(C(F)(F)CO)CC4)CC3)c(C#N)c2c(=O)n1CC#Cc1ccc(Cl)cc1-c1ccnc2c(C(=O)O)csc12
B. COc1c(N)cc(-c2cc(Cl)ccc2OCCn2cnc3cnc(C#N)cc3c2=O)cc1C(=O)O
C. Cc1cnc(-c2nc3c(=O)n(CCOc4ccc(Cl)cc4-c4cc(C)nc5c(C(=O)O)csc45)c(C)nc3cc2C(F)(F)F)c(Cl)n1
D. N#Cc1cncc2ncn(CCOc3ccc(Cl)cc3-c3cccc(C(=O)O)c3)c(=O)c12
E. Cc1nc2ccc(S(=O)(=O)N3CCC3)c(C#N)c2c(=O)n1CCOc1ccc(Cl)cc1-c1ccnc2c(C(=O)O)csc12
Lookup: Sequence the entries by IC50, beginning with the highest number. // format: requested-order list of labels
Found: B, D, E, C, A

A. Cc1nc2cc(C(F)(F)F)cc(C#N)c2c(=O)n1CCOc1ccc(Cl)cc1-c1cc(CO)nc2c(C(=O)O)csc12
B. Cc1sc2c(-c3cc(Cl)ccc3OCCn3c(C)nc4cc(C(F)(F)F)c(C5CCNCC5)c(C#N)c4c3=O)ccnc2c1C(=O)O
Lookup: Of the two listed items, which has the higher IC50? First: A Second: B Answer by stating the label of the chosen item.
Found: B
(B: 20.1 nM, A: 11.6 nM)

1. Cc1nc2c(C3CCC(F)(F)CC3)ncc(C#N)c2c(=O)n1CCOc1ccc(Cl)cc1-c1ccnc2c(C(=O)O)csc12
2. Cc1nc(N2CCN(C)C3CC32)c(C#N)c2c(=O)n(CC#Cc3ccc(Cl)cc3-c3ccnc4c(C(=O)O)csc34)c(C)nc12 (centres unmarked)
Lookup: Looking at 1 and 2 , which one comes out lower in IC50 terms? Answer by stating the label of the chosen item.
Found: 1
(1: 19.6 nM, 2: 33.4 nM)

* * *

Quick reference: pIC50 of the listed items.
# measured-target: recombinant eIF4E (Homo sapiens (Human))
# experiment-description: Fluorescence polarization competition assay for eIF4E binding potency
# assay-context: fluorescence polarization competition, 75 nM recombinant eIF4E, 20 nM EDA-m7GDP-ATTO-550; IC50 class; read-out: elF4E FP
pIC50: −log10 of the molar value.

Sample answers from the record:
compound	pIC50
Cc1nc2cncc(C#N)c2c(=O)n1CCOc1ccc(Cl)cc1-c1ccnc2c(C(=O)O)csc12 [compound 140]	6.00 to 7.30
Cc1nc2c(N(C)C3CCN(CC(F)(F)F)CC3)ncc(C#N)c2c(=O)n1CCOc1ccc(Cl)cc1-c1ccnc2c(C(=O)O)csc12 [compound 861]	> 7.30
N#Cc1cc2c(=O)n(CCOc3ccc(Cl)cc3-c3cc(C(=O)O)ccc3C3CC3)cnc2cn1 [compound 92]	< 6.00
Cc1cc(-c2cc(Cl)ccc2OCCn2c(C)nc3c(C)c(C(F)(F)F)cc(C#N)c3c2=O)c2scc(C(=O)O)c2n1 [compound 364]	6.00 to 7.30

Lookup: Need pIC50 of Cc1nc2ccc(C(F)F)c(C#N)c2c(=O)n1CCOc1ccc(Cl)cc1-c1ccnc2c(C(=O)O)csc12 [compound 160] , thanks.
Found: > 7.30

Lookup: Need pIC50 of Cc1cc(-c2cc(Cl)ccc2OCCn2c(C)nc3cc(F)c(-c4ccccc4)c(C#N)c3c2=O)c2scc(C(=O)O)c2n1 [compound 935] , thanks.
Found: > 7.30

Lookup: Need pIC50 of Cc1cc(-c2ncc3nc(C)n(CCOc4ccc(Cl)cc4-c4cc(C)nc5c(C(=O)O)csc45)c(=O)c3c2C#N)cc(C)n1 [compound 873] , thanks.
Found: > 7.30

Lookup: Need pIC50 of Cc1nc2cc(OC(F)(F)F)c(CN(C)C)c(C#N)c2c(=O)n1CCOc1ccc(Cl)cc1-c1ccnc2c(C(=O)O)csc12 [compound 532] , thanks.
Found: > 7.30

Lookup: Need pIC50 of Cc1nc2cc(C(F)(F)F)c(N3CCN(C)CC3)c(C#N)c2c(=O)n1CCOc1ccc(Cl)cc1-c1ccc(F)c2c(C(=O)O)csc12 [compound 1214] , thanks.
Found: > 7.30

Lookup: Need pIC50 of Cc1cc(-c2cc(Cl)ccc2OCCn2c(C)nc3c(C)nc(-c4cnc(N)cc4F)c(C#N)c3c2=O)c2scc(C(=O)O)c2n1 [compound 874] , thanks.
Found: > 7.30

Lookup: Need pIC50 of Cc1nc2cc(C(F)(F)F)c(CN3CCOCC3)c(C#N)c2c(=O)n1CCOc1ccc(Cl)cc1-c1ccnc2c(C(=O)O)csc12 [compound 501] , thanks.
Found: > 7.30

Lookup: Need pIC50 of Cc1cc(-c2cc(Cl)ccc2OCCn2c(C)nc3cnc(C4CC4C(F)(F)F)c(C#N)c3c2=O)c2scc(C(=O)O)c2n1 (stereo not shown) [compound 994] , thanks.
Found: > 7.30

Lookup: Need pIC50 of Cc1c(Cl)c2cc(C(F)(F)F)cc(C#N)c2c(=O)n1CCOc1ccc(Cl)cc1-c1ccnc2c(C(=O)O)csc12 [compound 218] , thanks.
Found: > 7.30
